Source listed as ChEMBL document CHEMBL3507680.

test method notes: Human HepG2 cell viability assay in 384 well format
Type: toxicity, cell-based
Set-up: dose 125 nL, time 70.5 hour; concentration not given beside the values
test parameters: HepG2 cells, read-out: Inhibition
Provide the reported cytotoxicity at 70.5 h of each item.
Report the figure along with its unit, number first.

# compound `CN(C(=O)NC1CC1)C1CCN(c2ccc(Cl)cc2)CC1` ; its cytotoxicity at 70.5 h = -7.5%

Quick note, cytotoxicity at 70.5 h for CCN1CCC(CNC(=O)C2(c3cccc(C)c3)CC2)C1 (configuration not stated) landed at 0.0668%

Notebook: Nc1nc2c(c(N3CCCC(c4nnc5ccccn45)C3)n1)CCNC2 (configuration not stated) , cytotoxicity at 70.5 h read as -2.11%

The reported cytotoxicity at 70.5 h of the compound CC(C)n1ccnc1C1CCCN(c2ccncc2F)C1 (configuration not stated) was -5.94%

Per the record, `O=C(Cc1cccs1)N1Cc2nc(COCC3CC3)oc2C1` has cytotoxicity at 70.5 h of 0.985%

Memo: O=C(c1cccnc1)N1CCC(c2nc(O)cc(-c3ccncc3)n2)C1 (configuration not stated) , reported cytotoxicity at 70.5 h: -10.5%

// O=C1CC[C@H]2[C@H](CCN2C(=O)C2CCCO2)N1Cc1ccncc1 (some centres not stated) : cytotoxicity at 70.5 h value = 7.56%

The compound CCn1ccnc1CN1CCN(CC(O)Cn2cccn2)CC1 (configuration not stated) showed cytotoxicity at 70.5 h equal to -10.4%

Query `COc1ccc(Br)cc1SCCC(N)=O` yields cytotoxicity at 70.5 h of -0.68%

For record `Cc1ccc(C(=O)N2C[C@@H]3CC[C@H](C2)N(CC2CCC2)C3)s1` the listed cytotoxicity at 70.5 h is 7.49%

Briefly, cytotoxicity at 70.5 h measured for Cc1ccc(OCCN2CCCC(c3cc(C(N)=O)[nH]n3)C2)cc1 (configuration not stated) : -5.38%

The recorded cytotoxicity at 70.5 h for CC(=O)NCc1ccc(C(=O)N2CCCCC2Cn2cccn2)o1 (configuration not stated) is 8.35%

cytotoxicity at 70.5 h measured on COCC(C)NC(=O)CCSc1ccc(F)cc1 (configuration not stated) = 13.7%

Memo: O=C1CCCN1CC1CN(C(=O)CC2CCCC2)Cc2nccn2C1 (configuration not stated) , reported cytotoxicity at 70.5 h: -8.43%

cytotoxicity at 70.5 h measured on `CN(C(=O)c1ccc2c(c1)nc(N1CC[C@H](O)C1)n2C)C1CCSCC1` = 24.9%

Field cytotoxicity at 70.5 h (entry `CC(C)CN(CC(C)C)Cn1ncc2cn(-c3ccccc3)nc2c1=O` ) reads -2.25%

Value of cytotoxicity at 70.5 h reported for the compound Cn1c(Cn2ccnc2)nnc1C1CCCN(C2CCCCC2)C1 (configuration not stated) is -9.84%

Data point: CC(C)(C)CNCC1(O)CCCN(Cc2ccccc2F)C1=O (configuration not stated) ; cytotoxicity at 70.5 h = 0.716%

According to the records, this compound Cc1cc(CN(C)C(=O)NC2CCCN(c3ncccn3)C2)no1 (configuration not stated) displays cytotoxicity at 70.5 h of -3.61%

cytotoxicity at 70.5 h reported for this compound CC(C)CN(CC(O)c1ccc(F)cc1)C(=O)c1cnsn1 (configuration not stated) : -3.42%

Measured cytotoxicity at 70.5 h of `COC[C@@]12CCO[C@@H]1CCN(C(=O)Cc1ccc(C)cc1)C2` : 31.2%

# compound `Cc1cccc(NC(=O)[C@@H]2CCCN2Cc2nc3ccccc3o2)n1` ; its cytotoxicity at 70.5 h = 4.7%

Noted for COCC(O)CN1CCC(NC(=O)c2ccccc2Cl)CC1 (configuration not stated) : its cytotoxicity at 70.5 h reads -0.503%

The compound listed as c1nc(N2CCOC(Cn3cncn3)C2)c2sccc2n1 (configuration not stated) has a reported cytotoxicity at 70.5 h of 29%

cytotoxicity at 70.5 h recorded for this compound, `CN(C)C(=O)COCc1cncc2c1CCN(C1CCOCC1)C2` , is -7.93%

Entry Cc1ccc(Cl)cc1NC(=O)C1CC(=O)N(Cc2ccccn2)C1 (configuration not stated) ; cytotoxicity at 70.5 h = 8.15%

Reported cytotoxicity at 70.5 h for `Cc1ccccc1C1(CNC(=O)CCN2C(=O)CCC2=O)CC1` was -12.8%

Documented cytotoxicity at 70.5 h of Cc1ncncc1C(=O)N1CCCC(c2[nH]ncc2S(C)(=O)=O)C1 (configuration not stated) : -6.13%

For record `O=C(Nc1cnccn1)[C@@H]1C[C@H]2OCC[C@H]2N(c2ncc(F)cn2)C1` the listed cytotoxicity at 70.5 h is 18%

// cytotoxicity at 70.5 h value for `OCc1c(Cl)ncn1-c1ccc(F)cc1` : 2.53%

The measured cytotoxicity at 70.5 h associated with Cc1c(-c2nnc(SCC(=O)O)n2C(C)c2ccccc2)cnn1C (configuration not stated) reads -12.3%

For record `CN(C)S(=O)(=O)N1C[C@@H](OCc2ccccn2)[C@H]2OCCC[C@H]21` the listed cytotoxicity at 70.5 h is -3.83%
